- experimental target: Androgen receptor (Homo sapiens, UniProt P10275, W742C)
- assay: Antagonist activity at Androgen receptor W742C mutant in human HEK293T cells cotransfected with MMTV-luc and renilla plasmid incubated for 24 hrs by Dual luciferase assay
- Type: cell-based

molecular string | IC50, nM
Cc1oc(-c2cccc(C(F)(F)F)c2)cc1C(=O)Nc1nc(CN2CCOCC2)ns1 | 240

----------
- assay: Microsomal stability in rat liver microsome assessed as half life measured upto 60 mins in presence of NADPH and UDPGA by HPLC-MS/MS analysis
- Format: ADME
- setup conditions: liver microsomes

molecular string | half-life
Cc1oc(-c2cccc(C(F)(F)F)c2)cc1C(=O)Nc1nc(CN2CCOCC2)ns1 | 29.6 min

----------
- assay: AUC (0 to t) in rat at 20 mg/kg, po by LC-MS/MS analysis
- Assay type: ADME, organism-based
- setup conditions: in vivo

molecular string | AUC(0-t) / µg·h/mL
Cc1oc(-c2cccc(C(F)(F)F)c2)cc1C(=O)Nc1nc(CN2CCOCC2)ns1 | 20.5

----------
- assay: Microsomal stability in Beagle dog liver microsome assessed as intrinsic clearance measured upto 60 mins in presence of NADPH and UDPGA by HPLC-MS/MS analysis
- Format: ADME, Canis lupus familiaris
- setup conditions: liver microsomes, read-out: CLH

molecular string | microsomal CLint
Cc1oc(-c2cccc(C(F)(F)F)c2)cc1C(=O)Nc1nc(CN2CCOCC2)ns1 | 31.5 µL/min/mg

----------
- assay: Acute toxicity in po dosed male CB17.SCID mouse implanted with human LNCaP cells assessed as body weight loss measured within 14 days
- Type: organism-based
- setup conditions: in vivo, time 14 day

molecular string | LD50 at 336 h (mg/kg)
Cc1oc(-c2cccc(C(F)(F)F)c2)cc1C(=O)Nc1nc(CN2CCOCC2)ns1 | 1250

----------
- experimental target: Mineralocorticoid receptor (Homo sapiens)
- Sequence (P08235 whole entry): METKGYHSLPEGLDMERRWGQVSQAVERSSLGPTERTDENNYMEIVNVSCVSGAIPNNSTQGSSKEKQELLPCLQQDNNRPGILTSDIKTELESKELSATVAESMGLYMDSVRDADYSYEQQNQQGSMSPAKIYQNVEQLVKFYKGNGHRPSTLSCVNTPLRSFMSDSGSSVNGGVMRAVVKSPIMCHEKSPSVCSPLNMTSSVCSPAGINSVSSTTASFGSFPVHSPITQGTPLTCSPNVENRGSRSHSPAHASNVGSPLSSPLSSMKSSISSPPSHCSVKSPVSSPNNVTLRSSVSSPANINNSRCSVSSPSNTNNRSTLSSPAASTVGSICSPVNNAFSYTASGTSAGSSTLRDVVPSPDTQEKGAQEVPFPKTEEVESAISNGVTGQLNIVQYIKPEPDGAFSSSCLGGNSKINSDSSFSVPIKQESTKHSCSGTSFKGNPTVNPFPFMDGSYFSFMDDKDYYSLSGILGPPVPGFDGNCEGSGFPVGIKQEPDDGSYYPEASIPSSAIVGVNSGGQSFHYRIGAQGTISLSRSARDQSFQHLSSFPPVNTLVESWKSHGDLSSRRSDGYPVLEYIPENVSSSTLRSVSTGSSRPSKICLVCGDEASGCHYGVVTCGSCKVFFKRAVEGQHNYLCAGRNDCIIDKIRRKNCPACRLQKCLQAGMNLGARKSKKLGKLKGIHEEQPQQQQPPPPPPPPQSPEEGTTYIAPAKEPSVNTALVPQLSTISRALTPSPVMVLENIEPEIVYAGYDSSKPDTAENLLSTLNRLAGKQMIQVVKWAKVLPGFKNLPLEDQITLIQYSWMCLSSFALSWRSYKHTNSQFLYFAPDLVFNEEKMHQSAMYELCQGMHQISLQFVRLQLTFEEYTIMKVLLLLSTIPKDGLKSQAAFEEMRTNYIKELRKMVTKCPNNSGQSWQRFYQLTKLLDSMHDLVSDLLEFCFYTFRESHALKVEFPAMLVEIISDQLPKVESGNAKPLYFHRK
pIC50: −log10 of the molar value.

molecular string | pIC50
Cc1oc(-c2cccc(C(F)(F)F)c2)cc1C(=O)Nc1nc(CN2CCOCC2)ns1 | < 5.00

----------
- assay: Microsomal stability in rat liver microsome assessed as parent compound remaining at 60 mins in presence of NADPH and UDPGA by HPLC-MS/MS analysis
- Assay type: ADME
- setup conditions: liver microsomes, read-out: Stability
recorded metric: remaining at 1 h (%)

molecular string | units | reported value
Cc1oc(-c2cccc(C(F)(F)F)c2)cc1C(=O)Nc1nc(CN2CCOCC2)ns1 | % | 22.5

----------
- assay: Microsomal stability in human liver microsome assessed as parent compound remaining at 60 mins in presence of NADPH and UDPGA by HPLC-MS/MS analysis
- Type: ADME
- setup conditions: liver microsomes, read-out: Stability

molecular string | remaining at 1 h (%)
Cc1oc(-c2cccc(C(F)(F)F)c2)cc1C(=O)Nc1nc(CN2CCOCC2)ns1 | 29.7

----------
- assay: AUC (0 to t) in rat at 20 mg/kg, iv by LC-MS/MS analysis
- Format: ADME, organism-based
- setup conditions: in vivo

molecular string | AUC(0-t)
Cc1oc(-c2cccc(C(F)(F)F)c2)cc1C(=O)Nc1nc(CN2CCOCC2)ns1 | 32000 ng·h/mL

----------
- assay: Cmax in rat at 20 mg/kg, iv by LC-MS/MS analysis
- Format: ADME, organism-based
- setup conditions: in vivo
recorded metric: Cmax (ng/mL)

molecular string | recorded metric | reported value
Cc1oc(-c2cccc(C(F)(F)F)c2)cc1C(=O)Nc1nc(CN2CCOCC2)ns1 | Cmax | 8450

----------
- assay: Tmax in rat at 20 mg/kg, po by LC-MS/MS analysis
- Format: ADME, organism-based
- setup conditions: in vivo

molecular string | Tmax, h
Cc1oc(-c2cccc(C(F)(F)F)c2)cc1C(=O)Nc1nc(CN2CCOCC2)ns1 | 3.33

----------
- experimental target: UniProt P10275
- Sequence (P10275 whole entry): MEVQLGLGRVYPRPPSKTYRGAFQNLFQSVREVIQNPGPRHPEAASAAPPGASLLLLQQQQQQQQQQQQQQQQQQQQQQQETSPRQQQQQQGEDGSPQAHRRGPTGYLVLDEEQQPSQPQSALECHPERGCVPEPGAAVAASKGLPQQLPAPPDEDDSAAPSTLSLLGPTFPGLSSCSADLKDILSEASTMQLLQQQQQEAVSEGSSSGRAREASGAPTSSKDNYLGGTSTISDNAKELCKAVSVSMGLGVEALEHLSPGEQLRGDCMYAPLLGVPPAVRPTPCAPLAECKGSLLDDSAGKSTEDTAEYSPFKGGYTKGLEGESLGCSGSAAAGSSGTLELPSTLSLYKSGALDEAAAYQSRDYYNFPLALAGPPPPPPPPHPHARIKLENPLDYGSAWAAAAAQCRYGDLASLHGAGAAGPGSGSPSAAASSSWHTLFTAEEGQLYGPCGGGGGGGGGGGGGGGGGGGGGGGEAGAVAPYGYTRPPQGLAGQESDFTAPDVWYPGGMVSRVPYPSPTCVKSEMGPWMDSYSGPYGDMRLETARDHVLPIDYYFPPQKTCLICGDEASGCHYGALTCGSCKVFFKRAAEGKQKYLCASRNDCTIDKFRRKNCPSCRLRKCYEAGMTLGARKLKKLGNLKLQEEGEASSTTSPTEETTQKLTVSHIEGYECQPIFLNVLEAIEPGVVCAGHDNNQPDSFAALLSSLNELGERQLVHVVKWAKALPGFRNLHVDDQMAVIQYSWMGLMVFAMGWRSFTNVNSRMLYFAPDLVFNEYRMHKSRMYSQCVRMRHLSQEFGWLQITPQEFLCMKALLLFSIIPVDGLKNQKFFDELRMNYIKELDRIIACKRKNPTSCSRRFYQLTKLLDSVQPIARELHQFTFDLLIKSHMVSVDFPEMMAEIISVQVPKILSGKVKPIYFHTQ
- assay: Antagonist activity at Androgen receptor in human LNCaP cells transfected with ARR2PB-eGFP incubated for 3 days by synergy H1 microplate reader analysis
pIC50: −log10 of the molar value.
recorded metric: pIC50

compound | recorded metric | reported value
Cc1oc(-c2cc(C(F)(F)F)ccc2F)cc1C(=O)Nc1nc(CN2CCOCC2)ns1 | pIC50 | 7.74
Cc1oc(-c2cccc(C#N)c2)cc1C(=O)Nc1nc(CN2CCOCC2)ns1 | pIC50 | 7.80
CC(=O)Cc1nsc(NC(=O)c2cc(-c3cccc(C(F)(F)F)c3)oc2C(F)(F)F)n1 | pIC50 | 5.08
Cc1oc(-c2cccc(C(F)(F)F)c2)cc1C(=O)Nc1nc(CN2CCC(O)CC2)ns1 | pIC50 | 6.85
CC(=O)Cc1nsc(NC(=O)c2cc(-c3cccc(C(F)(F)F)c3)oc2C)n1 | pIC50 | 6.82
CC(Cc1nsc(NC(=O)c2cc(-c3cccc(C(F)(F)F)c3)oc2C)n1)=C(F)F | pIC50 | 6.55
CC(=O)Cc1nsc(NC(=O)c2coc(-c3cccc(C(F)(F)F)c3)c2)n1 | pIC50 | 6.15
Cc1oc(-c2ccc(Cl)c(C(F)(F)F)c2)cc1C(=O)Nc1nc(CN2CCOCC2)ns1 | pIC50 | 7.46
Cc1oc(-c2cccc(C(F)(F)F)c2F)cc1C(=O)Nc1nc(CN2CCOCC2)ns1 | pIC50 | 6.70
Cc1oc(-c2cccc(OC(F)(F)F)c2)cc1C(=O)Nc1nc(CN2CCOCC2)ns1 | pIC50 | 7.72
Cc1oc(-c2cc(C(F)(F)F)ccc2Cl)cc1C(=O)Nc1nc(CN2CCOCC2)ns1 | pIC50 | 7.54
Cc1oc(-c2cccc(C(F)(F)F)c2)cc1C(=O)Nc1nc(CN2CCC(O)C2)ns1 (centres undefined) | pIC50 | 6.33
Cc1oc(-c2cccc(C(F)(F)F)c2)cc1C(=O)Nc1nc(CN2CCCC(O)C2)ns1 (centres undefined) | pIC50 | 6.82
Cc1oc(-c2cccc(C(F)(F)F)c2)cc1C(=O)Nc1nc(CC(C)N2CCCC2)ns1 (centres undefined) | pIC50 | 7.62
Cc1oc(-c2cccc(C(F)(F)F)c2)cc1C(=O)Nc1nccs1 | pIC50 | 6.35
Cc1oc(-c2cccc(C(F)(F)F)c2Cl)cc1C(=O)Nc1nc(CN2CCOCC2)ns1 | pIC50 | 6.07
Cc1oc(-c2cccc(C(F)(F)F)c2)cc1C(=O)Nc1nc(CN2CCCC2)ns1 | pIC50 | 7.21
Cc1oc(-c2cccc(C(F)(F)F)c2)cc1C(=O)Nc1nc(CC(C)N2CCOCC2)ns1 (centres undefined) | pIC50 | 7.49
Cc1oc(-c2cccc(C(F)(F)F)c2)cc1C(=O)Nc1nc(CN2CCC(C(C)(C)O)CC2)ns1 | pIC50 | 6.57
